Where do these numbers come from? They come from PubChem BioAssay (NCI).

# reported growth inhibition; entries follow
assayRemarks: NCI Yeast Anticancer Drug Screen. Data for the mgt1 strain (AID 153)
measurementContext: S. cerevisiae mgt1 mutant growth inhibition; at 1.2 µM; stronger effect = higher value
Compounds without any hit were thinned out: in the full panel of roughly 79,000, 15% have a hit.

>  <molecule>
CCNC(=O)OCC1C2=C(C(=O)C(C)=C(N)C2=O)N2CC3C(N3C)C12OC (stereo not drawn)

>  <growth inhibition / %>
2

$$$$
>  <molecule>
C[N+]1(CCCl)CC[N+](C)(CCCl)CC1 (stereo not drawn)

>  <growth inhibition / %>
-2

$$$$
>  <molecule>
CO[C@H](/C(C)=C/C=C/C(C)=C/c1coc(C)n1)[C@H](C)[C@H]1C[C@@H](O)[C@@]2(C)O[C@H]2/C=C/[C@@H](C)[C@@H]2C[C@@H](CC(=O)O2)C[C@H]2O[C@@H]2C(=O)O1

>  <growth inhibition / %>
-4

$$$$
>  <molecule>
COC(=O)c1c(C)ccc2c(O)c3c(cc12)C(=O)c1c2c(cc(O)c1C3=O)C1(C)OC(C)(O2)C(O)C(N(C)C)C1O (stereo not drawn)

>  <growth inhibition / %>
0

$$$$
>  <molecule>
Cc1nc2ccccc2cc1C[N+]12CN3CN(CN(C3)C1)C2

>  <growth inhibition / %>
2

$$$$
>  <molecule>
COC1CC(CC2CCC(C)C(C(C)C(=O)O)O2)OC2(OC(C)(C3CCC(C)(C4OC(C5OC(O)(CO)C(C)CC5C)CC4C)O3)CC2C)C1C (stereo not drawn)

>  <growth inhibition / %>
14

$$$$
>  <molecule>
CN(C)CCSC1=Nc2ccc(Cl)cc2C(c2ccccc2Cl)=NC1

>  <growth inhibition / %>
-2

$$$$
>  <molecule>
NC1=NCC(c2ccc(Cl)cc2)O1 (stereo not drawn)

>  <growth inhibition / %>
-3

$$$$
>  <molecule>
O=[N+]([O-])O.[NH-]C1CCCCC1[NH-].[NH-]C1CCCCC1[NH-].[NH-]C1CCCCC1[NH-].[OH-].[OH-].[OH-].[Pt+4].[Pt+4].[Pt+4] (stereo not drawn)

>  <growth inhibition / %>
-14

$$$$
>  <molecule>
OC1CCCC2CCC[N-]C12.OC1CCCC2CCC[N-]C12.[O]=[V][OH] (stereo not drawn)

>  <growth inhibition / %>
24

$$$$
>  <molecule>
c1c(N2CCOCC2)ssc1=[N+]1CCOCC1

>  <growth inhibition / %>
0

$$$$
>  <molecule>
COc1cccc2c1C(=O)c1c(O)c3c(c(O)c1C2=O)C[C@@](O)(C(C)=O)C[C@@H]3OC1CC(N)C(OC2CC(O)C(O)C(C)O2)C(C)O1 (stereo partly drawn)

>  <growth inhibition / %>
-22

$$$$
>  <molecule>
COC(=O)C(F)C(Br)C(=O)OC (stereo not drawn)

>  <growth inhibition / %>
16

$$$$
>  <molecule>
CC(=O)O/C(=C1\C[C@H]2[C@@H]3CC=C4C[C@@H](OC(C)=O)CC[C@]4(C)[C@H]3CC[C@]2(C)C1=O)C(F)(F)F

>  <growth inhibition / %>
1

$$$$
>  <molecule>
CCC1(OC(=O)CN)C(=O)OCc2c1cc1n(c2=O)Cc2cc3ccccc3nc2-1 (stereo not drawn)

>  <growth inhibition / %>
20

$$$$
>  <molecule>
N#CC(C#N)=Cc1ccc(C#N)cc1

>  <growth inhibition / %>
-2

$$$$
>  <molecule>
COC1C(O)C(C)OC(OC2C(Oc3cccc4c(O)c5c(=O)oc6ccc(C)c7c(=O)oc(c34)c5c67)OC(C)C(O)C2O)C1O (stereo not drawn)

>  <growth inhibition / %>
-4

$$$$
>  <molecule>
C/C(=N\N=C(N)N)C(CN1CCOCC1)C(c1ccccc1)c1c(O)c2ccccc2oc1=O (stereo not drawn)

>  <growth inhibition / %>
1

$$$$

====

assayRemarks: NCI Yeast Anticancer Drug Screen. Data for the mlh1 rad18 strain (AID 175)
measurementContext: S. cerevisiae mlh1 rad18 strain growth inhibition; at 50.0 µM (retest, dose inferred, filed as 5.0)
About 79,000 compounds went through this panel and 15% of them were active in at least one assay; those are over-represented in the sample as a whole. Activity calls are given as the source filed them. No stated cut-off is given here; in the data, active means growth inhibition above about 70%; inactive means the rest.
Outcomes: TRUE for active, FALSE for inactive

>  <compound>
CCC1(O)C(=O)OCc2c1cc1n(c2=O)Cc2c-1nc1ccccc1c2OC (stereo not given)

>  <labelClass>
FALSE

$$$$
>  <compound>
C/C(=C\c1ccc2c(c1)OCO2)[N+](=O)[O-]

>  <labelClass>
TRUE

$$$$
>  <compound>
CCOP(=O)(CP(=O)(OCC)OCC)OCC.[Cl][Sn]([Cl])([c]1ccccc1)[c]1ccccc1

>  <labelClass>
TRUE

$$$$
>  <compound>
Clc1c(Cl)c(Cl)c([S][Pb]([c]2ccccc2)([c]2ccccc2)[c]2ccccc2)c(Cl)c1Cl

>  <labelClass>
TRUE

$$$$
>  <compound>
CC(C)(C)C(Br)C(=O)NC(N)=O (stereo not given)

>  <labelClass>
FALSE

$$$$

====

assayRemarks: NCI Yeast Anticancer Drug Screen. Data for the wt2 strain (AID 169);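 further: 0% = growth of vehicle-treated yeast cultures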
measurementContext: S. cerevisiae wt2 strain growth inhibition; at 1.2 µM; stronger effect = higher value
About 79,000 compounds went through this panel and 15% of them were active in at least one assay; those are over-represented in the sample as a whole.

>  <compound>
Nc1ccc(Cl)cc1C(=O)c1ccccc1

>  <measureUnit>
%

>  <growth inhibition>
-2

$$$$
>  <compound>
Nc1nc(-c2ccccc2)c(-c2ccccc2)[se]1

>  <measureUnit>
%

>  <growth inhibition>
-10

$$$$
>  <compound>
CCN(CCCl)c1cc(CN(C)C)cc(NC(=O)c2ccc(C(=O)Nc3cc(CN(C)C)cc(N(CC)CCCl)c3)cc2)c1

>  <measureUnit>
%

>  <growth inhibition>
-12

$$$$
>  <compound>
CCCN(CCC)c1c([N+](=O)[O-])cc(S(N)(=O)=O)cc1[N+](=O)[O-]

>  <measureUnit>
%

>  <growth inhibition>
-6

$$$$
>  <compound>
Cc1c([N+](=O)[O-])oc2ccc3ccccc3c12

>  <measureUnit>
%

>  <growth inhibition>
1

$$$$
>  <compound>
N#Cc1ccc([Se]c2ccccc2)cc1

>  <measureUnit>
%

>  <growth inhibition>
10

$$$$
>  <compound>
COC(=O)C1=C(C(=O)OC)C2OC1c1cc3ccccc3cc12

>  <measureUnit>
%

>  <growth inhibition>
13

$$$$
>  <compound>
CCNCC(=O)O[C@]1(CC)C(=O)OCc2c1cc1n(c2=O)Cc2cc3ccccc3nc2-1

>  <measureUnit>
%

>  <growth inhibition>
-29

$$$$
>  <compound>
CCC1(O)C(=O)OCc2c1cc1n(c2=O)Cc2c-1nc1ccccc1c2OC (stereo not given)

>  <measureUnit>
%

>  <growth inhibition>
10

$$$$
>  <compound>
Cc1ccc2nc3sc(=O)sc3nc2c1

>  <measureUnit>
%

>  <growth inhibition>
11

$$$$
>  <compound>
C[CH2][Sn]([CH2]C)([O]S(C)(=O)=O)[O]S(C)(=O)=O

>  <measureUnit>
%

>  <growth inhibition>
-56

$$$$
>  <compound>
CCCCCCCCCC[Se]C#N

>  <measureUnit>
%

>  <growth inhibition>
-2

$$$$
>  <compound>
C/C(CCl)=N/NC1=NC(c2ccccc2Cl)P(=O)(NCCCNP2(=O)SC(N/N=C(/C)CCl)=NC2c2ccccc2Cl)S1 (stereo not given)

>  <measureUnit>
%

>  <growth inhibition>
0

$$$$
>  <compound>
CC(=O)O/C(=C1\C[C@H]2[C@@H]3CC=C4C[C@@H](OC(C)=O)CC[C@]4(C)[C@H]3CC[C@]2(C)C1=O)C(F)(F)F

>  <measureUnit>
%

>  <growth inhibition>
-1

$$$$
>  <compound>
O=c1oc2ccccc2c(O)c1C(c1ccc2ccccc2c1)c1c(O)c2ccccc2oc1=O

>  <measureUnit>
%

>  <growth inhibition>
-25

$$$$
>  <compound>
CC[C@](O)(C(=O)O)c1cc2n(c(=O)c1CO)Cc1cc3ccccc3nc1-2

>  <measureUnit>
%

>  <growth inhibition>
-3

$$$$
>  <compound>
C[C@]12CCC(=O)C=C1CC[C@@H]1C2CC[C@@]2(C)C1CC[C@@H]2OC(=O)C12OC1CCC2=O (stereo not given in full)

>  <measureUnit>
%

>  <growth inhibition>
-3

$$$$
>  <compound>
O=C(O)CCCOc1cc(Cl)c(Cl)cc1Cl

>  <measureUnit>
%

>  <growth inhibition>
-6

$$$$
>  <compound>
CC[C@@]1(O)C[C@H](OC2CC(N(C)C)C(O)C(C)O2)c2c(O)c3c(c(O)c2[C@H]1OC1CC(N(C)C)C(O)C(C)O1)C(=O)c1cccc(O)c1C3=O (stereo not given in full)

>  <measureUnit>
%

>  <growth inhibition>
-21

$$$$
>  <compound>
C[C@]12CCc3nonc3C1CC[C@@H]1C2CC[C@]2(C)C(=O)CCC12 (stereo not given in full)

>  <measureUnit>
%

>  <growth inhibition>
5

$$$$
>  <compound>
CCC1(OC(=O)CN)C(=O)OCc2c1cc1n(c2=O)Cc2cc3ccccc3nc2-1 (stereo not given)

>  <measureUnit>
%

>  <growth inhibition>
0

$$$$
>  <compound>
COC(COC(=O)N1CCN(C=O)CC1)C1=C(N2CC2)C(=O)C(C)=C(N2CC2)C1=O (stereo not given)

>  <measureUnit>
%

>  <growth inhibition>
-27

$$$$
>  <compound>
c1c(N2CCOCC2)ssc1=[N+]1CCOCC1

>  <measureUnit>
%

>  <growth inhibition>
0

$$$$
>  <compound>
CN(C)CCC(C(=O)C(Br)Br)(c1ccccc1)c1ccccc1

>  <measureUnit>
%

>  <growth inhibition>
0

$$$$
>  <compound>
COc1cc(C2c3cc4c(cc3[C@@H](Nc3ccc(N)cc3)C3COC(=O)[C@H]23)OCO4)cc(OC)c1O (stereo not given in full)

>  <measureUnit>
%

>  <growth inhibition>
-1

$$$$
>  <compound>
COC1CC(CC2CCC(C)C(C(C)C(=O)O)O2)OC2(OC(C)(C3CCC(C)(C4OC(C5OC(O)(CO)C(C)CC5C)CC4C)O3)CC2C)C1C (stereo not given)

>  <measureUnit>
%

>  <growth inhibition>
-46

$$$$
>  <compound>
O=C(O)C1C2CCC(C2)C1c1ccccc1 (stereo not given)

>  <measureUnit>
%

>  <growth inhibition>
-1

$$$$
>  <compound>
O=Cc1ccc(C(F)(F)F)cc1.[C-]#[O+].[C-]#[O+].[C-]#[O+].[Cr]

>  <measureUnit>
%

>  <growth inhibition>
3

$$$$
>  <compound>
BrCC[N+]12CC[N+](CCBr)(CC1)C2

>  <measureUnit>
%

>  <growth inhibition>
-33

$$$$
>  <compound>
CC1CCC2(NC1)OC1CC3C4CCC5CC(OC6OC(CO)C(OC7OC(CO)C(O)C(OC8OCC(O)C(O)C8O)C7OC7OC(CO)C(O)C(O)C7O)C(O)C6O)CCC5(C)C4CCC3(C)C1C2C (stereo not given)

>  <measureUnit>
%

>  <growth inhibition>
-7

$$$$
>  <compound>
CC1CC(Br)C(=O)O1 (stereo not given)

>  <measureUnit>
%

>  <growth inhibition>
-52

$$$$
>  <compound>
O=C1C2CC(Cl)C(SSC3CC4C(=O)N(SC(Cl)(Cl)C(Cl)Cl)C(=O)C4CC3Cl)CC2C(=O)N1SC(Cl)(Cl)C(Cl)Cl (stereo not given)

>  <measureUnit>
%

>  <growth inhibition>
17

$$$$
>  <compound>
O=C1C=C(CN(CCCl)CCCl)C(=O)C=C1CN(CCCl)CCCl

>  <measureUnit>
%

>  <growth inhibition>
0

$$$$
>  <compound>
COc1ccc(/C=C(/C)[N+](=O)[O-])cc1

>  <measureUnit>
%

>  <growth inhibition>
-5

$$$$
>  <compound>
O=c1oc2ccccc2c(O)c1C(c1ccc2c(c1)Cc1ccccc1-2)c1c(O)c2ccccc2oc1=O

>  <measureUnit>
%

>  <growth inhibition>
-17

$$$$
>  <compound>
CC1CN=C(Nc2ccccc2)S1 (stereo not given)

>  <measureUnit>
%

>  <growth inhibition>
-31

$$$$
>  <compound>
COC(=O)c1c(C)ccc2c(O)c3c(cc12)C(=O)c1c2c(cc(O)c1C3=O)C1(C)OC(C)(O2)C(O)C(N(C)C)C1O (stereo not given)

>  <measureUnit>
%

>  <growth inhibition>
-1

$$$$
>  <compound>
O=C(O)CCCc1cc(I)c(N(CCCl)CCCl)c(I)c1

>  <measureUnit>
%

>  <growth inhibition>
-13

$$$$
>  <compound>
CCOP(=O)(CC(C)P(=O)(OCC)OCC)OCC.C[CH2][Sn]([Cl])([Cl])[CH2]C (stereo not given)

>  <measureUnit>
%

>  <growth inhibition>
-1

$$$$
>  <compound>
CC1=C(O)C(=O)C=C2C1=CC=C1[C@@]2(C)CCC2(C)[C@@H]3C[C@@H](C)C(=O)C[C@]3(C)CC[C@]12C (stereo not given in full)

>  <measureUnit>
%

>  <growth inhibition>
0

$$$$
